target: T1, wild type human CD47 (Acro Biosystems, cat. no. CD7-H5227) (human, UniProt Q08722 19-139); assay: SPR, IgG captured, CD47 in flow; exp 4;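 further: biacore T200 SPR using IgG from transfected HEK293 supernatants against wild-type human CD47 or its C33G mutein, rates fitted to association and dissociation curves, KD estimated from them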
T1 construct: Bought protein used as SPR analyte; also called Human CD47 wt; wild-type CD47
T1 sequence (Q08722 19-139 limits assumed): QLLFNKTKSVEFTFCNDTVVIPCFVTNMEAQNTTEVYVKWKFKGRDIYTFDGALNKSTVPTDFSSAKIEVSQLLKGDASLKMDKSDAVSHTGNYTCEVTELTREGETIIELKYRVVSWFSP
For each record, write down the corresponding Kd.
// units = nM; emit number, no label

Value of measured Kd for the entry 108VH5.M22 / 108VL1.M5 (antibody, human IgG4 S228P, kappa, V domains shown, Full-length IgG4 (S228P), kappa; also called VH5.M22 VL1.M5) VH: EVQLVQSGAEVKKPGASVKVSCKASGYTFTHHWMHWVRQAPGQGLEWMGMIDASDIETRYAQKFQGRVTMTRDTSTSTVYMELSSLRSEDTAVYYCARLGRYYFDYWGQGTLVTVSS VL: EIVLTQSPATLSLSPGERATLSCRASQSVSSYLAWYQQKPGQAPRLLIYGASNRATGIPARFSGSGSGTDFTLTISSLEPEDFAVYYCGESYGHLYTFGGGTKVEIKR : 6.1

For this binder ( 108VH4.M4-VL1.M1 (antibody, V domains shown, also called original humanized 108C10A6 antibody) VH: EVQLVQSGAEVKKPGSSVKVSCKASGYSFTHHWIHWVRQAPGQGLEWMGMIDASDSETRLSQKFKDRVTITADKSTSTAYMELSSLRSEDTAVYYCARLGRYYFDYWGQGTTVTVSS VL: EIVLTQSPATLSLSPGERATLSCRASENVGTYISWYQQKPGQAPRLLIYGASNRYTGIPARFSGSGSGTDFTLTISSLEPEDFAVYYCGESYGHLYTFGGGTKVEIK ), measured Kd is 0.38

Memo: 108VH5.M26 / 108VL1.M5 (antibody, human IgG4 S228P, kappa, V domains shown, Full-length IgG4 (S228P), kappa; also called VH5.M26 VL1.M5) VH: EVQLVQSGAEVKKPGASVKVSCKASGYTFTHHWMHWVRQAPGQGLEWMGMIDASDVETRYAQKFQGRVTMTRDTSTSTVYMELSSLRSEDTAVYYCARLGRYYFDYWGQGTLVTVSS VL: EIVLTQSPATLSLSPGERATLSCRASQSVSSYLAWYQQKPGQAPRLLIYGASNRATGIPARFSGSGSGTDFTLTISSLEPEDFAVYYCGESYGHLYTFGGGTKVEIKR , reported Kd: 4.6

Kd reported for this binder 108VH5.M25 / 108VL1.M5 (antibody, human IgG4 S228P, kappa, V domains shown, Full-length IgG4 (S228P), kappa; also called VH5.M25 VL1.M5) VH: EVQLVQSGAEVKKPGASVKVSCKASGYTFTHHWMHWVRQAPGQGLEWMGMIDASDRETRYAQKFQGRVTMTRDTSTSTVYMELSSLRSEDTAVYYCARLGRYYFDYWGQGTLVTVSS VL: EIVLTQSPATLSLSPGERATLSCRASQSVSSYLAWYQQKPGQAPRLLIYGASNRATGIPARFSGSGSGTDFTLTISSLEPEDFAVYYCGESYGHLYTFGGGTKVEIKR : 6.2

Record 108VH5.M27 / 108VL1.M5 (antibody, human IgG4 S228P, kappa, V domains shown, Full-length IgG4 (S228P), kappa; also called VH5.M27 VL1.M5) VH: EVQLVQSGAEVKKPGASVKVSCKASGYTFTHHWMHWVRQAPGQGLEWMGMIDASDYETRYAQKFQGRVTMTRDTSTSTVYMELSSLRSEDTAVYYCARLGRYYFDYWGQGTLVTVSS VL: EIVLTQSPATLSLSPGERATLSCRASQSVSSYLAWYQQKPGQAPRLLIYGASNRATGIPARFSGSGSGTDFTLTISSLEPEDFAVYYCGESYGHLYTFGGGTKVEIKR . Reported Kd: 7.4

Kd in this record for chimeric antibody 108C10A6 (antibody, V domains shown, Chimeric antibody with mouse variable domains; captured through human Fc; also called VH / VL) VH: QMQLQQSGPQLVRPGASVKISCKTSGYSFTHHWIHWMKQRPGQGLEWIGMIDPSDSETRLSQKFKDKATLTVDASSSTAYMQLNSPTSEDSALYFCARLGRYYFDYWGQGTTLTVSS VL: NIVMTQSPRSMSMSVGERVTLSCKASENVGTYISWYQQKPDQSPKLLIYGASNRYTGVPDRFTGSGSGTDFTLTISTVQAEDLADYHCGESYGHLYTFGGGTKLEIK : 0.17

Value of measured Kd for the entry 108VH5.M24 / 108VL1.M5 (antibody, human IgG4 S228P, kappa, V domains shown, Full-length IgG4 (S228P), kappa; also called VH5.M24 VL1.M5) VH: EVQLVQSGAEVKKPGASVKVSCKASGYTFTHHWMHWVRQAPGQGLEWMGMIDASDLETRYAQKFQGRVTMTRDTSTSTVYMELSSLRSEDTAVYYCARLGRYYFDYWGQGTLVTVSS VL: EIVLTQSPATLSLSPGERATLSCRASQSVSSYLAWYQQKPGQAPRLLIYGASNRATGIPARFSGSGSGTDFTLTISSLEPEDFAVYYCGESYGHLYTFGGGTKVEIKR : 5.7

Per the records, this binder ( 108VH5.M20 / 108VL1.M5 (antibody, human IgG4 S228P, kappa, V domains shown, Full-length IgG4 (S228P), kappa; also called VH5.M20 VL1.M5) VH: EVQLVQSGAEVKKPGASVKVSCKASGYTFTHHWMHWVRQAPGQGLEWMGMIDASDAETRYAQKFQGRVTMTRDTSTSTVYMELSSLRSEDTAVYYCARLGRYYFDYWGQGTLVTVSS VL: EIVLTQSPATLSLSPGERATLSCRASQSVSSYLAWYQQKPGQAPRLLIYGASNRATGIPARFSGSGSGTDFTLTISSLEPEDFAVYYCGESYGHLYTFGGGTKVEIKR ) has Kd equal to 3

Measured Kd, 108VH5.M21 / 108VL1.M5 (antibody, human IgG4 S228P, kappa, V domains shown, Full-length IgG4 (S228P), kappa; also called VH5.M21 VL1.M5) VH: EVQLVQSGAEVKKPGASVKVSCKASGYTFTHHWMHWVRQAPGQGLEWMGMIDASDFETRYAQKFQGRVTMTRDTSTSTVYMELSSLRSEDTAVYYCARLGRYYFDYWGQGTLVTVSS VL: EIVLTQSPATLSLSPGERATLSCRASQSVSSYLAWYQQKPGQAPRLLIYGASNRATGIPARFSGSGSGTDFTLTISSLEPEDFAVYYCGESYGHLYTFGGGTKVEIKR : 6.5

Reported Kd of 108VH5.M23 / 108VL1.M5 (antibody, human IgG4 S228P, kappa, V domains shown, Full-length IgG4 (S228P), kappa; also called VH5.M23 VL1.M5) VH: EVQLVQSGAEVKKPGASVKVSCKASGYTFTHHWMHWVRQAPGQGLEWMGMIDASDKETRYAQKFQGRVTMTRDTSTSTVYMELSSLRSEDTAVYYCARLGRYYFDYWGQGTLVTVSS VL: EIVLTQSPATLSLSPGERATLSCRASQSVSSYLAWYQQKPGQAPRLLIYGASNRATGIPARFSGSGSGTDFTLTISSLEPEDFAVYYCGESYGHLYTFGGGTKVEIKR : 6.4
